Biological target: UniProtKB P41595
Sequence (P41595 whole entry): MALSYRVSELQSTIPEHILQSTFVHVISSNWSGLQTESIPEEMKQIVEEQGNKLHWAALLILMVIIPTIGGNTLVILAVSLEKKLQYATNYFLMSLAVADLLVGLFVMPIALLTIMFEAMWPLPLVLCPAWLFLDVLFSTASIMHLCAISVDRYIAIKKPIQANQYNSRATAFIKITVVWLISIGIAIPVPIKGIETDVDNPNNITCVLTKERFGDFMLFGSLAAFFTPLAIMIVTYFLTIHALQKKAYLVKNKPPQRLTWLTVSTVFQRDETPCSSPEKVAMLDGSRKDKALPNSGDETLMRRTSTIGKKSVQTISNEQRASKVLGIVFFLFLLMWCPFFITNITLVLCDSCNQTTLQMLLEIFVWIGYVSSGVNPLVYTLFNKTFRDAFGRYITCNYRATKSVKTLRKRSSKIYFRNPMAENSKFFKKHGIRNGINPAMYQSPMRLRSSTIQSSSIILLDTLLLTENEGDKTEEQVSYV
Type: functional, cell-based
endpoint: AC50

Worked examples follow.
input: Notebook entry, UniProtKB P41595 assay: AC50 of CC1(C)C(C=C(Cl)Cl)C1C(=O)OCc1cccc(Oc2ccccc2)c1 (configuration not stated) = ?
output: > 10 µM

input: Notebook entry, UniProtKB P41595 assay: AC50 of "COc1cc(OC)c(C(=O)CCCN2CCCC2)c(OC)c1" = ?
output: > 30 µM

input: Notebook entry, UniProtKB P41595 assay: AC50 of "CC(/C=C1\SC(=S)N(CC(=O)O)C1=O)=C\c1ccccc1" = ?
output: > 30 µM

input: Notebook entry, UniProtKB P41595 assay: AC50 of "N=C(N)c1ccc2cc(OC(=O)c3ccc(N=C(N)N)cc3)ccc2c1" = ?
output: 29 µM

input: Notebook entry, UniProtKB P41595 assay: AC50 of "CS(=O)(=O)OCCCCOS(C)(=O)=O" = ?
output: > 30 µM

input: Notebook entry, UniProtKB P41595 assay: AC50 of Nc1nc2c(c(=O)[nH]1)N(C=O)C(CNc1ccc(C(=O)N[C@@H](CCC(=O)O)C(=O)O)cc1)CN2 (some centres not stated) = ?
output: > 30 µM

Others:
input: Notebook entry, UniProtKB P41595 assay: AC50 of "C#C[C@]1(O)CC[C@H]2[C@@H]3CCc4cc(OC)ccc4[C@H]3CC[C@@]21C" = ?
output: > 10 µM

input: Notebook entry, UniProtKB P41595 assay: AC50 of "Nc1ccc(C(=O)O)c(O)c1" = ?
output: > 30 µM

input: Notebook entry, UniProtKB P41595 assay: AC50 of "CCCC[C@H](C)C[C@H](O)/C=C/[C@H]1[C@H](O)CC(=O)[C@@H]1CCCC/C=C/C(=O)O" = ?
output: > 30 µM

input: Notebook entry, UniProtKB P41595 assay: AC50 of CC(=O)OCC(=O)[C@@]1(O)CC[C@H]2[C@@H]3CCC4=CC(=O)CC[C@]4(C)C3=CC[C@@]21C [ANECORTAVE ACETATE] = ?
output: > 10 µM

input: Notebook entry, UniProtKB P41595 assay: AC50 of "CCCCNc1ccc(C(=O)OCCN(C)C)cc1" = ?
output: 33 µM

input: Notebook entry, UniProtKB P41595 assay: AC50 of CC(C)OC(=O)C(C(=O)OC(C)C)=C1SC=CS1 [MALOTILATE] = ?
output: > 30 µM

Where do these numbers come from? They come from ChEMBL document CHEMBL5291721.
